tgt: PDE 4 (cGMP non-inhibitable cAMP PDE)
assay text: Phosphodiesterase inhibiting activity, PDE 4
experimental parameters: isozyme from dog kidney; 1 μM [3H]-cAMP or [3H]-cGMP; read-out: Inhibition of PDE Activity: IC50 PDE 4
For each record, write down the corresponding IC50.
Your answer should be a plain number; it is taken to be in µM.

**Query** State the recorded IC50 for this entry: CCOc1ccccc1NC(=O)c1nc(NCc2ccc(OC)c(Cl)c2)c2c3c(sc2n1)CN(C(C)C)CC3
**Result** 2

**Query** Record request: IC50 value, item COC(=O)c1ccc(NC(=O)c2nc(NCc3ccc(OC)c(Cl)c3)c3c4c(sc3n2)CN(C)CC4)cc1
**Result** 4.1

**Query** What does the record list as IC50 for CCOC(=O)Cc1nc(NCc2ccc(OC)c(Cl)c2)c2c3c(sc2n1)C(=O)N(C(C)C)CC3 ?
**Result** 8

**Query** Which value of IC50 has been reported for COc1ccc(CNc2nc(-c3cccnc3)nc3sc4c(c23)CCN(Cc2ccccc2)C4)cc1Cl in the records?
**Result** 2

**Query** # IC50 lookup, item COc1ccc(CNc2nc(-c3ccncc3)nc3sc4c(c23)CCN(C)C4)cc1Cl
**Result** 3.7

**Query** Suppose we examine the molecule COc1ccc(CNc2nc(C(=O)NCc3ccccc3)nc3sc4c(c23)CCN(C)C4)cc1Cl ; what IC50 value has been reported?
**Result** 5.1

**Query** I am curious: what IC50 value has been reported for COc1ccc(CNc2nc(C(=O)Nc3ccccc3Cl)nc3sc4c(c23)CCN(C)C4)cc1Cl ?
**Result** 3.6

**Query** GET /values?readout=IC50&item= CCOC(=O)N1CCc2c(sc3nc(-c4ccncc4)nc(NCc4ccc(OC)c(Cl)c4)c23)C1
**Result** 2.5
